Target: T1, human PD-1 (soluble analyte in SPR) (human, UniProt Q15116 25-170, limits assumed)
T1 construct: also called CD279; PDCD1
T1 sequence (Q15116 25-170 limits assumed): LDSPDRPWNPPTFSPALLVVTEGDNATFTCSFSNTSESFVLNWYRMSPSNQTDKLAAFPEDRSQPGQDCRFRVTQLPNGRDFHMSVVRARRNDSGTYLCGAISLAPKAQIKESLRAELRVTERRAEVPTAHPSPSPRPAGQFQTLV
Experiment: SPR (ProteOn XPR36), mAb from crude supernatant captured on anti-human IgG Fc, PD-1 as analyte, 25 C
The label is t for kon below 300000 M⁻¹ s⁻¹ and f for kon equal to or exceeding 300000 M⁻¹ s⁻¹.

{"binder": "PD1B850 (antibody, human IgG1, kappa, V domains shown, G56I variant of PD1B750, IgG1; tested as crude supernatant in SPR; also called VH PD1H404; VL PD1L470) VH: QVQLVQSGAEVKKPGASVKVSCKASGYTFTTYWMHWVRQAPGQGLEWMGEINPNNIGINYAQKFQGRVTLTVDKSISTAYMELSRLRSDDTAVYYCTIDYYDYGGYWGQGTLVTVSS VL: DIQMTQSPSSLSASVGDRVTITCKASQNVGTNVAWYQQKPEKAPKSLIYSASYRYSGVPSRFSGSGSGTDFTLTISSLQPEDFATYYCQQYNIYPYTFGQGTKLEIKR", "className": "f"}

Q: Please determine if PD1B846 (antibody, human IgG1, kappa, V domains shown, N55D, G56A variant of PD1B750, IgG1; tested as crude supernatant in SPR; also called VH PD1H400; VL PD1L470) VH: QVQLVQSGAEVKKPGASVKVSCKASGYTFTTYWMHWVRQAPGQGLEWMGEINPNDAGINYAQKFQGRVTLTVDKSISTAYMELSRLRSDDTAVYYCTIDYYDYGGYWGQGTLVTVSS VL: DIQMTQSPSSLSASVGDRVTITCKASQNVGTNVAWYQQKPEKAPKSLIYSASYRYSGVPSRFSGSGSGTDFTLTISSLQPEDFATYYCQQYNIYPYTFGQGTKLEIKR is below 300000 M⁻¹ s⁻¹ in terms of kon.
Result: f

Q: Is 300000 M⁻¹ s⁻¹ strictly greater than the binder's reported kon? binder: PD1B845 (antibody, human IgG1, kappa, V domains shown, G56A variant of PD1B750, IgG1; tested as crude supernatant in SPR; also called VH PD1H399; VL PD1L470) VH: QVQLVQSGAEVKKPGASVKVSCKASGYTFTTYWMHWVRQAPGQGLEWMGEINPNNAGINYAQKFQGRVTLTVDKSISTAYMELSRLRSDDTAVYYCTIDYYDYGGYWGQGTLVTVSS VL: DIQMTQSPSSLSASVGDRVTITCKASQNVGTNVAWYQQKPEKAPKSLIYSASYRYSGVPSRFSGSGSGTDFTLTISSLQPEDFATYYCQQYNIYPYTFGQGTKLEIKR
Result: f

Q: kon strictly < 300000 M⁻¹ s⁻¹ for this binder? PD1B848 (antibody, human IgG1, kappa, V domains shown, N55K variant of PD1B750, IgG1; tested as crude supernatant in SPR; also called VH PD1H402; VL PD1L470) VH: QVQLVQSGAEVKKPGASVKVSCKASGYTFTTYWMHWVRQAPGQGLEWMGEINPNKGGINYAQKFQGRVTLTVDKSISTAYMELSRLRSDDTAVYYCTIDYYDYGGYWGQGTLVTVSS VL: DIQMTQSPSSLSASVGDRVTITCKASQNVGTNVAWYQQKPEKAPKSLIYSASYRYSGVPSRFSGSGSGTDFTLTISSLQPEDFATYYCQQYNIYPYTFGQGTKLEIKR
Result: t
